# measurement_target: Integrin alpha-IIb/beta-3 (Homo sapiens, UniProt P08514+P05106)
# Sequence (P05106 27-788 limits assumed): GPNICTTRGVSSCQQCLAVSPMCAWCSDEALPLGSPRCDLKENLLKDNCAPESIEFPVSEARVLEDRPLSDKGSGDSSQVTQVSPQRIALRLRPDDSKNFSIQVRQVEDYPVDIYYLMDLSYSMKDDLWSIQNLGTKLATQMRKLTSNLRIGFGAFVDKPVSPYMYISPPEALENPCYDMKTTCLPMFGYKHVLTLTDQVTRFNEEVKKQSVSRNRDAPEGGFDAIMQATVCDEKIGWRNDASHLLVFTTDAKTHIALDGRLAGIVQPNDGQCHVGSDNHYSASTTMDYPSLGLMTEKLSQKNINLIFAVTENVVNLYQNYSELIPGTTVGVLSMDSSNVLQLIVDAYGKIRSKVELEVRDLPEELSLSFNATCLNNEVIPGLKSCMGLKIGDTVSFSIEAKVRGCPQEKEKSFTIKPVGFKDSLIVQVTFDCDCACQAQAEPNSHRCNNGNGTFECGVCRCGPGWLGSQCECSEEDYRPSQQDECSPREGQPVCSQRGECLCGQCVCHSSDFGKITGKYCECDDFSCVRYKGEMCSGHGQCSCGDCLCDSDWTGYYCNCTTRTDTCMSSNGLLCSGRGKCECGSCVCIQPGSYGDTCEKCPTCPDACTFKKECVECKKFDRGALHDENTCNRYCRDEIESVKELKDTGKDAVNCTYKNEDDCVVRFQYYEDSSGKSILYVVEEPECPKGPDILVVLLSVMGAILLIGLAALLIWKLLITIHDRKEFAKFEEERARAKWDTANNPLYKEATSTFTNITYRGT
# Sequence (P08514 32-887 limits assumed): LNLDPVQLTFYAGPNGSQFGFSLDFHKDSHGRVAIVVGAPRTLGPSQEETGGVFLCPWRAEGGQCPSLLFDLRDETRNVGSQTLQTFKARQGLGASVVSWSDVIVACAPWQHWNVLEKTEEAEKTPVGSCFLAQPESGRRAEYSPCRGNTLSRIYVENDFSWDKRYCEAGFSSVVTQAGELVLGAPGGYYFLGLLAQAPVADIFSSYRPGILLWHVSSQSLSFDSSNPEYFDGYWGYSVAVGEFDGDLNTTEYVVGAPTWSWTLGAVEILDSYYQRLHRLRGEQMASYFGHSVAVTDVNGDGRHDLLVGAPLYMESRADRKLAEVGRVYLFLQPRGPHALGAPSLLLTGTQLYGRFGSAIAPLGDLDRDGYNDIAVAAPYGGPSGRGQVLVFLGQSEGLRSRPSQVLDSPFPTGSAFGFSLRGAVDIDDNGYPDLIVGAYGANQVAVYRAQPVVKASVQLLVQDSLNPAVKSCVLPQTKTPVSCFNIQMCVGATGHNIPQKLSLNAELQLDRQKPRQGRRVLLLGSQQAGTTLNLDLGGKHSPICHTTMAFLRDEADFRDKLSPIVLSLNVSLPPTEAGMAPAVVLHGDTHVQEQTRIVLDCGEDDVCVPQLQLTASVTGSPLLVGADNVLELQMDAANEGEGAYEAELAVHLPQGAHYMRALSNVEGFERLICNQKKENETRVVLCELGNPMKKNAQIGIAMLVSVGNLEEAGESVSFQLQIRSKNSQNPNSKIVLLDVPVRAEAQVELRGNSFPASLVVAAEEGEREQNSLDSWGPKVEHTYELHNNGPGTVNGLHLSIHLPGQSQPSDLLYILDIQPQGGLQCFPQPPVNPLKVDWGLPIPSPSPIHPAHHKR
# Sequence (P08514 891-1039 limits assumed): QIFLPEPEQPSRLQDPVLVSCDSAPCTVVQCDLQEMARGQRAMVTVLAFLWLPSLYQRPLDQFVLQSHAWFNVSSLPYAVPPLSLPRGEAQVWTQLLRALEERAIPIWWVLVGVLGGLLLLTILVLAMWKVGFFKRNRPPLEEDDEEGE
# assay_remarks: Inhibition of integrin alphaIIb-beta3 in platelet aggregation assay
pIC50: −log10 of the molar value.
measurement_kind: pIC50

- compound: "O=C(NC[C@H](NS(=O)(=O)c1ccccc1)C(=O)O)c1ccc(CCc2ccc3c(n2)NCCC3)cc1"
  measurement_target: "Integrin alpha-IIb/beta-3 (Homo sapiens, UniProt P08514+P05106)"
  readout_number: 6.59

P. O=C(O)C[C@H](NC(=O)CN1CCC(CCc2ccc3c(n2)NCCC3)C1=O)c1cnc2ccccc2c1 (some centres not stated)
Q. Nc1cccc(CCc2ccc(C(=O)NC[C@H](NS(=O)(=O)c3ccc(I)cc3)C(=O)O)cc2)n1
Query: For the pair P and Q , which member has the lower pIC50 number? Lab note: record the label of whichever item you select.
Result: Q
(Q: 5.80, P: 6.11)
